- assay-system: human D2R/β-arrestin (Homo sapiens (Human))
- protocol-notes: Gi/cAMP agonist assay (Lance Ultra cAMP, forskolin)
- Format: cell-based
- cond: CHO-K1 cells expressing human D2R/β-arrestin; agonist mode, 2.5 μM forskolin
readout-type: EC50

Some compounds with recorded EC50:
{"compound": "CC1(Oc2cccc(C(F)(F)F)c2)CCN(CCOc2ccccc2)C1 (centres unmarked)", "readout-type": "EC50", "obs-value": "< 100 nM"}
{"compound": "CC1(Oc2ccc(Cl)cc2)CCN(CCOc2ccc3ccncc3c2)C1 (centres unmarked)", "readout-type": "EC50", "obs-value": "100 to 1000 nM"}
{"compound": "CC1(Oc2ccccc2)CCN(CCCCOc2ccccc2)CC1", "readout-type": "EC50", "obs-value": "< 100 nM"}

Documented EC50 of `CC1(Oc2ccccc2)CCN(CCOc2ccncc2)CC1` : 100 to 1000 nM

Documented EC50 of `CC1(Oc2ccccc2)CCN(CCOc2ccccc2C#N)CC1` : < 100 nM

###

Reported pIC50 values are given for each entry in this list.
- assay-system: human D2R/β-arrestin (Homo sapiens (Human))
- protocol-notes: cell-based
- cond: β-arrestin Antagonist, CHO-K1 cells expressing human D2R/β-arrestin; antagonist mode, quinpirole 130 nM
pIC50: −log10 of the molar value.

Some compounds with recorded pIC50:
{"compound": "CC1(O)CCN(CC2COc3ccccc3O2)CC1 (stereo not shown) [Compound 140]", "readout-type": "pIC50", "obs-value": "6.00 to 7.00"}
{"compound": "CC1(Oc2cnccn2)CCN(CCOc2ccccc2)C1 (stereo not shown) [Example 60]", "readout-type": "pIC50", "obs-value": "< 4.52"}
{"compound": "CC1(Oc2ccc(Cl)cc2)CCN(CCOc2ccccc2OC(F)(F)F)CC1 [Compound 146]", "readout-type": "pIC50", "obs-value": "6.00 to 7.00"}

Documented pIC50 of C#CC1(Oc2ccccc2)CCN(CCOc2ccccc2C(F)(F)F)CC1 [Compound 194] : 5.00 to 6.00

Documented pIC50 of CC1(Oc2cccc(Cl)c2Cl)CCN(CCOc2ccccc2)C1 (stereo not shown) [Example 49] : 4.52 to 5.00

Documented pIC50 of CC1(Oc2ccccc2)CCN(CCOc2ccccc2C#N)CC1 [Example 109] : > 7.00

Documented pIC50 of CC1(Oc2ccc(Cl)cc2)CCN(CCOc2ccc(C#N)cc2)CC1 [Compound 185] : 4.52 to 5.00

###

- assay-system: human D2R/β-arrestin (Homo sapiens (Human), UniProt P14416)
- Sequence (P14416 whole entry): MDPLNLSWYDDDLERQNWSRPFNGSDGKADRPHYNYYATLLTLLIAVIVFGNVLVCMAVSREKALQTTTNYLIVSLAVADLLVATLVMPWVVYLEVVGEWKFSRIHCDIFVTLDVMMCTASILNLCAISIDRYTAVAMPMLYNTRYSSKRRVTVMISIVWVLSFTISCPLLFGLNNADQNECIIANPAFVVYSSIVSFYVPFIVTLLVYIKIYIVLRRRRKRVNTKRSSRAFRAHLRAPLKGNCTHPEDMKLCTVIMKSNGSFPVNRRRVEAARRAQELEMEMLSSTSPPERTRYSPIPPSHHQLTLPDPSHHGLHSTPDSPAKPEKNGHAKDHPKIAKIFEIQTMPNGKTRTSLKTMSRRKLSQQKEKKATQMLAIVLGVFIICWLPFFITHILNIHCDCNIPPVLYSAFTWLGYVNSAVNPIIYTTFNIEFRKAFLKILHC
- protocol-notes: cell-based
- cond: cAMP Antagonist, CHO-K1 cells expressing human D2R/β-arrestin; antagonist mode, 2.5 μM forskolin and 2.7 nM quinpirole
pIC50: −log10 of the molar value.
readout-type: pIC50

Some molecules with recorded pIC50:
{"molecule": "CC1(Oc2ccccc2)CCN(CCOc2cccc(C(F)(F)F)c2)CC1 [Example 67]", "readout-type": "pIC50", "obs-value": "< 4.52"}
{"molecule": "CC1(O)CCN(CCOc2ccccc2C(F)(F)F)CC1 [Compound 124]", "readout-type": "pIC50", "obs-value": "> 7.00"}
{"molecule": "CC1(Oc2ccccc2)CCN(CCOc2ccccc2F)CC1 [Example 87]", "readout-type": "pIC50", "obs-value": "< 4.52"}
{"molecule": "CC1(Oc2ccc(Cl)cc2)CCN(CCOc2ccccc2OC(F)(F)F)CC1 [Compound 146]", "readout-type": "pIC50", "obs-value": "< 4.52"}
{"molecule": "CC1(Oc2ccc(C(F)(F)F)cc2)CCN(CCOc2ccccc2)C1 (stereo not shown) [Example 54]", "readout-type": "pIC50", "obs-value": "4.52 to 5.00"}

We now examine a further molecule.
Documented pIC50 of CC1(Oc2ccc(Cl)cc2)CCN(CCOc2ccc(C(F)(F)F)nc2)C1 (stereo not shown) [Compound 30] : < 4.52
